TARGET: recombinant human NK3 receptor (Homo sapiens, UniProt P29371)
Construct: expressed in transfected cells; host or cells: HEK293 cells, transient expression; membranes
Sequence (P29371 whole entry): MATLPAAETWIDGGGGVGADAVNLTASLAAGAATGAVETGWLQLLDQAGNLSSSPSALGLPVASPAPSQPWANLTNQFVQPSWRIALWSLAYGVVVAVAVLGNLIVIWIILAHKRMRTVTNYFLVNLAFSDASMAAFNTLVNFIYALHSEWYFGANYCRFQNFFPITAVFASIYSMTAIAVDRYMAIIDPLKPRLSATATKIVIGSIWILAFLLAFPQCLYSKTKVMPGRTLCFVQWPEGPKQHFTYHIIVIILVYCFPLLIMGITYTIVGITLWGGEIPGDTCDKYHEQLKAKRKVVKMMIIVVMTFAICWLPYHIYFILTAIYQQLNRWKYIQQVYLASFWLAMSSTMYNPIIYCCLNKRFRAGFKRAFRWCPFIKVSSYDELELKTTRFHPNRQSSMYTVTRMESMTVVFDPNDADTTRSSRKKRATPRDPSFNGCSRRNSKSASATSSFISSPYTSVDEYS
ASSAY_DETAILS: [3H]SR142801 competition binding assay

{"columns": ["MOLECULE", "READING_UNIT", "Ki"],
 "data": [
  ["CN(C(=O)Oc1ccc(F)cc1)[C@@H]1CN(C(=O)C2CCN(C3CC3)CC2)C[C@H]1c1ccc(Cl)cc1", "nM", 15.6],
  ["CN(C(=O)OCC1CCOCC1)[C@H]1CN(C(=O)C2CCN(C(=O)C3(C)CC3)CC2)C[C@@H]1c1ccc(Cl)c(Cl)c1 (racemic)", "nM", 11.6],
  ["CC(C)N1CC(C(=O)N2CCC(C(=O)N3C[C@@H](N(C)C(=O)Oc4ccc(F)cc4)[C@H](c4ccc(Cl)cc4)C3)CC2)CCC1=O (stereo partly drawn)", "nM", 8.8]
]}
